// data source = ChEMBL document CHEMBL1143673

System: Estrogen receptor (Homo sapiens, UniProt P03372) | Read-out: pIC50
Sequence (P03372 whole entry): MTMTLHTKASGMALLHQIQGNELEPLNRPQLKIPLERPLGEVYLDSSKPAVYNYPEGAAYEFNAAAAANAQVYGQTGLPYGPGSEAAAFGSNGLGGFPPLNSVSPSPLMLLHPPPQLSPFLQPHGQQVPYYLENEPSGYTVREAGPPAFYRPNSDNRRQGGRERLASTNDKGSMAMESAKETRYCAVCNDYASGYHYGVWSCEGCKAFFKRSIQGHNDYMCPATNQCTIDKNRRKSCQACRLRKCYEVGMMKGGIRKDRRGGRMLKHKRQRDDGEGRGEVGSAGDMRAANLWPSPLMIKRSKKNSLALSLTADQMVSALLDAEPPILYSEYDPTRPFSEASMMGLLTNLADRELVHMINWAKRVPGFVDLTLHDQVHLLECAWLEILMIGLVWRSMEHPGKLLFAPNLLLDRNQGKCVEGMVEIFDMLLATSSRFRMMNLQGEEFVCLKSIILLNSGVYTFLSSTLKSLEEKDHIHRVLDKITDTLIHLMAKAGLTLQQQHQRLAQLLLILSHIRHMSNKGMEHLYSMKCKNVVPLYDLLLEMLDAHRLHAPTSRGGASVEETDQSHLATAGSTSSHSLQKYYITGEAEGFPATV
Give bare numbers, as −log10 of the molar value.

Here is how some molecules turned out for pIC50.
INSERT INTO results (compound_string, endpoint_name, recorded_result) VALUES
  ('Oc1ccc2c(Oc3ccc(OCCN4CCCCC4)cc3)c(-c3ccc(Br)cc3)sc2c1', 'pIC50', 7.57),
  ('CS(=O)(=O)c1ccc(-c2sc3cc(O)ccc3c2Oc2ccc(OCCN3CCCCC3)cc2)cc1', 'pIC50', 7.57),
  ('Nc1ccc(-c2sc3cc(O)ccc3c2Oc2ccc(OCCN3CCCCC3)cc2)cc1', 'pIC50', 7.71),
  ('Oc1ccc2c(Oc3ccc(OCCN4CCCCC4)cc3)c(-c3ccccc3)sc2c1', 'pIC50', 7.96);

Now look at this one.
Q: Request the reported pIC50 associated with `Oc1ccc2c(Oc3ccc(OCCN4CCCCC4)cc3)c(-c3ccc(NCCCl)cc3)sc2c1`
Result: 7.45
